test.system: FPR2 (Homo sapiens, UniProt P25090)
Sequence (P25090 whole entry, species assumed): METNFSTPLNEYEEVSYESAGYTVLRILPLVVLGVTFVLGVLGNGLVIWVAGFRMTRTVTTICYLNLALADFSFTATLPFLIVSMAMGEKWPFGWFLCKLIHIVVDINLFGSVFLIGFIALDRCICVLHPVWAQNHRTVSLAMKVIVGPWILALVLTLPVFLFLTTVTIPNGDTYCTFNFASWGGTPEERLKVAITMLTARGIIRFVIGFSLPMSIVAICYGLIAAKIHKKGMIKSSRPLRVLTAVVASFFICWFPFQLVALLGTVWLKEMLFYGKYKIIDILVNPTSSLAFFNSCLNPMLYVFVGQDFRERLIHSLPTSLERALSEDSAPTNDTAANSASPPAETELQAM
measurement.protocol: Change in calcium activity by peptide (Fura-2) in RBL cells overexpressing FPR2
condition.label: calcium activity (Fura-2), graded per Table 3, read-out: EC50 for [Ca^2+] FPR2
pEC50: −log10 of the molar value. Peptide text beside a SMILES is read from it.
readout.type: pEC50

molecule: CCCC(=O)N1CCC[C@H]1C(=O)N[C@@H](CCCCN)C(=O)N[C@@H](Cc1ccc(O)cc1)C(=O)N[C@@H](CCCCN)C(=O)N[C@H](C(=O)N[C@H](CCSC)C(N)=O)C(C)C [Peptide 140] (HELM PEPTIDE1{[CCCC(=O)[*:2]].P.K.Y.K.V.[dM].[am]}$$$$V2.0)
result: > 8.00

Req: State its pEC50: CCCC(=O)N[C@@H](CCSC)C(=O)N[C@@H](CCCNC(=N)N)C(=O)N[C@@H](Cc1ccc(O)cc1)C(=O)N[C@@H](Cc1c[nH]c2ccccc12)C(=O)N1CCC[C@H]1C(=O)N[C@H](CCSC)C(N)=O [Peptide 112] (HELM PEPTIDE1{[CCCC(=O)[*:2]].M.R.Y.W.P.[dM].[am]}$$$$V2.0)
Resp: > 8.00

Req: Give a short answer stating reported pEC50 for CCCC(=O)N[C@@H](Cc1c[nH]cn1)C(=O)N[C@@H](Cc1c[nH]c2ccccc12)C(=O)N[C@@H](CCCCN)C(=O)N[C@@H](Cc1ccc(O)cc1)C(=O)N[C@@H](CCCCN)C(=O)N[C@@H](Cc1ccc(O)cc1)C(=O)N[C@H](CCSC)C(N)=O [Peptide 37] (HELM PEPTIDE1{[CCCC(=O)[*:2]].H.W.K.Y.K.Y.[dM].[am]}$$$$V2.0) .
Resp: > 8.00
